test-summary: Cell viability: resazurin assay
Assay type: cell-based, human
setup-conditions: human, HEp2 cells
Provide the reported CC50 at 5 days of each item.

Requested read-out: CC50 at 5 days. Entry: O=C(Nc1ccccc1F)c1cc2c(s1)-c1ccccc1N(C(=O)c1ccc(NC(=O)c3cccnc3N3CC4(CCOCC4)C3)cc1F)CC2 [Example 29]
> 14.2 µM

Requested read-out: CC50 at 5 days. Entry: Cc1cnc(N2CC3(CCOCC3)C2)c(C(=O)Nc2ccc(C(=O)N3CCc4cc(C(=O)Nc5c(O)cccc5F)sc4-c4ccccc43)cc2)c1 [Example 52]
> 13.9 µM

Requested read-out: CC50 at 5 days. Entry: Cc1cnc(N2CC3(CCOCC3)C2)c(C(=O)Nc2ccc(C(=O)N3CCc4cc(C(=O)Nc5ccccc5Cl)sc4-c4ccccc43)cc2)c1 [Example 34]
> 13.9 µM

Requested read-out: CC50 at 5 days. Entry: Cc1ccccc1NC(=O)c1cc2c(s1)-c1ccccc1N(C(=O)c1ccc(NC(=O)c3cccnc3N3CC4(CCOCC4)C3)cc1)CC2 [Example 14]
> 14.6 µM

Requested read-out: CC50 at 5 days. Entry: Cc1cnc(N2CC3(CCOCC3)C2)c(C(=O)Nc2ccc(C(=O)N3CCc4cc(C(=O)Nc5c(F)cccc5C5CC5)sc4-c4ccccc43)cc2)c1 [Example 7]
> 13.5 µM

Requested read-out: CC50 at 5 days. Entry: CCc1ccccc1NC(=O)c1cc2c(s1)-c1ccccc1N(C(=O)c1ccc(NC(=O)c3cccnc3N3CC4(CCOCC4)C3)cc1)CC2 [Example 17]
> 14.3 µM

Requested read-out: CC50 at 5 days. Entry: Cc1cccc(F)c1NC(=O)c1cc2c(s1)-c1ccccc1N(C(=O)c1ccc(NC(=O)c3cc(C4CC4)cnc3N3CC4(CCOCC4)C3)cc1)CC2 [Example 11]
> 13.5 µM

Requested read-out: CC50 at 5 days. Entry: O=C(Nc1c(F)cccc1Cl)c1cc2c(s1)-c1ccccc1N(C(=O)c1ccc(NC(=O)c3cc4c(nc3N3CC5(CCOCC5)C3)CCC4)cc1F)CC2 [Example 80]
> 12.8 µM

Requested read-out: CC50 at 5 days. Entry: O=C(Nc1c(F)cccc1F)c1cc2c(s1)-c1ccccc1N(C(=O)c1ccc(NC(=O)c3cccnc3N3CC4(CCOCC4)C3)cc1F)CC2 [Example 30]
> 13.8 µM

Requested read-out: CC50 at 5 days. Entry: Cc1cccc(F)c1NC(=O)c1cc2c(s1)-c1ccccc1N(C(=O)c1ccc(NC(=O)c3cc(Cl)cnc3N3CC4(CCOCC4)C3)cc1)CC2 [Example 69]
> 13.6 µM

Requested read-out: CC50 at 5 days. Entry: [2H]c1c([2H])c(C(=O)N2CCc3cc(C(=O)Nc4c(C)cccc4F)sc3-c3ccccc32)c([2H])c([2H])c1NC(=O)c1cc(C)cnc1N1CC2(CCOCC2)C1 [Example 70]
> 13.9 µM

Requested read-out: CC50 at 5 days. Entry: Cc1cnc(N2CC3(CCOCC3)C2)c(C(=O)Nc2ccc(C(=O)N3CCc4cc(C(=O)Nc5ccccc5)sc4-c4ccccc43)cc2)c1 [Example 32]
> 14.6 µM

Requested read-out: CC50 at 5 days. Entry: Cc1cccc(F)c1NC(=O)c1cc2c(s1)-c1ccccc1N(C(=O)c1ccc(NC(=O)c3cc4c(nc3N3CC5(CCOCC5)C3)CCC4)cc1)CC2 [Example 8]
> 13.5 µM

Requested read-out: CC50 at 5 days. Entry: Cc1cnc(N2CCC3(CC2)COC3)c(C(=O)Nc2ccc(C(=O)N3CCc4cc(C(=O)Nc5c(F)cccc5Cl)sc4-c4ccccc43)cc2)c1 [Example 93]
> 13.6 µM

Requested read-out: CC50 at 5 days. Entry: Cc1cnc(N2CC3(CCOCC3)C2)c(C(=O)Nc2ccc(C(=O)N3CCc4cc(C(=O)Nc5ccc(F)cc5F)sc4-c4ccccc43)cc2)c1 [Example 38]
> 13.9 µM

Requested read-out: CC50 at 5 days. Entry: COCc1cnc(N2CC3(CCOCC3)C2)c(C(=O)Nc2ccc(C(=O)N3CCc4cc(C(=O)Nc5c(F)cccc5Cl)sc4-c4ccccc43)cc2)c1 [Example 67]
> 13.1 µM

Requested read-out: CC50 at 5 days. Entry: O=C(Nc1ccc(F)cc1F)c1cc2c(s1)-c1ccccc1N(C(=O)c1ccc(NC(=O)c3cc4ccccc4nc3N3CC4(CCOCC4)C3)cc1)CC2 [Example 85]
> 13.2 µM

Requested read-out: CC50 at 5 days. Entry: Cc1cccc(C)c1NC(=O)c1cc2c(s1)-c1ccccc1N(C(=O)c1ccc(NC(=O)c3cccnc3N3CC4(CCOCC4)C3)cc1)CC2 [Example 24]
> 14.3 µM

Requested read-out: CC50 at 5 days. Entry: N#Cc1ccccc1NC(=O)c1cc2c(s1)-c1ccccc1N(C(=O)c1ccc(NC(=O)c3cccnc3N3CC4(CCOCC4)C3)cc1)CC2 [Example 2]
> 14.4 µM

Requested read-out: CC50 at 5 days. Entry: Cc1ccc(C(=O)Nc2ccc(C(=O)N3CCc4cc(C(=O)Nc5c(F)cc(F)cc5F)sc4-c4ccccc43)cc2)c(N2CC3(CCOCC3)C2)n1 [Example 50]
> 13.6 µM

Requested read-out: CC50 at 5 days. Entry: Cc1cccc(F)c1NC(=O)c1cc2c(s1)-c1ccccc1N(C(=O)c1ccc(NC(=O)c3cc4sccc4nc3N3CC4(CCOCC4)C3)cc1)CC2 [Example 89]
> 13.2 µM

Requested read-out: CC50 at 5 days. Entry: COc1ccc(NC(=O)c2cc3c(s2)-c2ccccc2N(C(=O)c2ccc(NC(=O)c4cccnc4N4CC5(CCOCC5)C4)cc2)CC3)c(F)c1 [Example 23]
> 13.9 µM

Requested read-out: CC50 at 5 days. Entry: O=C(Nc1ccccc1F)c1cc2c(s1)-c1ccccc1N(C(=O)c1ccc(NC(=O)c3cccnc3N3CC4(CCOCC4)C3)cc1)CC2 [Example 15]
> 14.5 µM

Requested read-out: CC50 at 5 days. Entry: O=C(Nc1c(F)cccc1Cl)c1cc2c(s1)-c1ccccc1N(C(=O)c1ccc(NC(=O)c3cc(C4CC4)cnc3N3CC4(CCOCC4)C3)cc1)CC2 [Example 65]
> 13.1 µM

* * *

System: RSV A2 F-protein expression in BEAS2B bronchial epithelial cells
test-summary: Assessment of RSV F protein expression in BEAS2B bronchial epithelial cells
Format: cell-based
setup-conditions: human respiratory syncytial virus, BEAS-2B, 72 h, read-out: RSV A2 F-protein IC50 (nM)
quantity: log10(IC50) (log10 of the value in nM)
Use the decimal logarithm of IC50 (nM).

Requested read-out: log10(IC50). Entry: "Cc1ccccc1NC(=O)c1cc2c(s1)-c1ccccc1N(C(=O)c1ccc(NC(=O)c3cccnc3N3CC4(CCOCC4)C3)cc1)CC2"
-0.39

Requested read-out: log10(IC50). Entry: "Cc1cnc(N2CC3(CCOCC3)C2)c(C(=O)Nc2ccc(C(=O)N3CCc4cc(C(=O)Nc5ccccc5F)sc4-c4ccccc43)cc2)c1"
-0.72

Requested read-out: log10(IC50). Entry: "O=C(Nc1c(F)cccc1Cl)c1cc2c(s1)-c1ccccc1N(C(=O)c1ccc(NC(=O)c3cc4c(nc3N3CC5(CCOCC5)C3)CCCC4)cc1)CC2"
-0.89

Requested read-out: log10(IC50). Entry: "O=C(Nc1c(F)cccc1Cl)c1cc2c(s1)-c1ccccc1N(C(=O)c1ccc(NC(=O)c3cc(C4CC4)cnc3N3CC4(CCOCC4)C3)cc1)CC2"
-0.23

Requested read-out: log10(IC50). Entry: "O=C(Nc1ccccc1Cl)c1cc2c(s1)-c1ccccc1N(C(=O)c1ccc(NC(=O)c3cccnc3N3CC4(CCOCC4)C3)cc1)CC2"
-0.03

Requested read-out: log10(IC50). Entry: "O=C(Nc1ccc(F)cc1Cl)c1cc2c(s1)-c1ccccc1N(C(=O)c1ccc(NC(=O)c3cccnc3N3CC4(CCOCC4)C3)cc1)CC2"
-0.29

Requested read-out: log10(IC50). Entry: "Cc1cnc(N2CC3(CCOCC3)C2)c(C(=O)Nc2ccc(C(=O)N3CCc4cc(C(=O)Nc5c(F)cccc5Cl)sc4-c4ccccc43)cc2)c1"
-1.24

Requested read-out: log10(IC50). Entry: "O=C(Nc1c(F)cccc1F)c1cc2c(s1)-c1ccccc1N(C(=O)c1ccc(NC(=O)c3cc4c(nc3N3CC5(CCOCC5)C3)CCC4)cc1)CC2"
-0.60

Requested read-out: log10(IC50). Entry: "O=C(Nc1ccccc1F)c1cc2c(s1)-c1ccccc1N(C(=O)c1ccc(NC(=O)c3cccnc3N3CC4(CCOCC4)C3)cc1)CC2"
-0.44

Requested read-out: log10(IC50). Entry: "O=C(Nc1c(F)cccc1Cl)c1cc2c(s1)-c1ccccc1N(C(=O)c1ccc(NC(=O)c3cc4ccccc4nc3N3CC4(CCOCC4)C3)cc1)CC2"
-0.31

Requested read-out: log10(IC50). Entry: "Cc1cccc(F)c1NC(=O)c1cc2c(s1)-c1ccccc1N(C(=O)c1ccc(NC(=O)c3cc4c(nc3N3CC5(CCOCC5)C3)CCCC4)cc1)CC2"
-1.47

Requested read-out: log10(IC50). Entry: "O=C(Nc1c(F)cccc1F)c1cc2c(s1)-c1ccccc1N(C(=O)c1ccc(NC(=O)c3cccnc3N3CC4(CCOCC4)C3)cc1F)CC2"
-0.57

Requested read-out: log10(IC50). Entry: "O=C(Nc1c(F)cccc1Cl)c1cc2c(s1)-c1ccccc1N(C(=O)c1ccc(NC(=O)c3cccnc3N3CC4(CCOCC4)C3)cc1)CC2"
-0.85
